pIC50 for assorted molecules
target: cyclin A (Homo sapiens, UniProt P20248)
Sequence (P20248 whole entry): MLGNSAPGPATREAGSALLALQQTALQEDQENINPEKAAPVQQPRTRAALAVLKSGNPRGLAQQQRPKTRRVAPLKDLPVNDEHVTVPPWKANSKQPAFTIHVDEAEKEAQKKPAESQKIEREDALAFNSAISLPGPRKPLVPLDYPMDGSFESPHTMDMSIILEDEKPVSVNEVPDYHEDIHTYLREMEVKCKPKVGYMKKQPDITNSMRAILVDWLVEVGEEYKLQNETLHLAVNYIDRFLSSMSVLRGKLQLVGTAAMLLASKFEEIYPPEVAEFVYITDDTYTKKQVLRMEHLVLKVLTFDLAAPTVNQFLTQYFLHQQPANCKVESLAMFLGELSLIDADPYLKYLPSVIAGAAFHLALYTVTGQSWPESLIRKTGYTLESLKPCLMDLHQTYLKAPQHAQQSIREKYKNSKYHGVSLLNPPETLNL
pIC50: −log10 of the molar value. Non-standard residues stand in square brackets, D forms with d. Residues, ends and D or L forms follow the SMILES beside them. Phe(4-F) = N[C@@H](Cc1ccc(F)cc1)C(=O)O
MEASURED_METRIC: pIC50

* CC(C)C[C@H](NC(=O)[C@H](CCCNC(=N)N)NC(=O)[C@@H](N)CCCNC(=N)N)C(=O)N[C@@H](Cc1ccc(F)cc1)C(N)=O [SEQ ID NO: 29, H-Arg-Arg-Leu-—-(p-F-Phe)-NH2] (H-RRL[Phe(4-F)]-NH2) | 4.72
* CC(C)C[C@H](NC(=O)[C@H](CCCNC(=N)N)NC(=O)[C@@H](N)CCCNC(=N)N)C(=O)N[C@@H](Cc1ccccc1)C(N)=O [SEQ ID NO: 20, H-Arg-Arg-Leu-Phe-NH2] (H-RRLF-NH2) | 5.09
